- assay-method-text: Acute toxicity in mice
- condition-parameters: mouse, in vivo, po
property-label: LD50 (mg/kg)

[[record]]
compound = "COc1c2occc2cc2ccc(=O)oc12 [8-MOP, 8-methoxypsoralen, reference compound]"
unit_of_measurement = "mg/kg"
measured_value = 800

[[record]]
compound = "Cc1cc2occc2c2oc(=O)ccc12 [5-methylangelicin]"
unit_of_measurement = "mg/kg"
measured_value = 2000

[[record]]
compound = "Cc1cc2c(ccc3c(C)cc(=O)oc32)o1 [4,5'-dimethylangelicin]"
unit_of_measurement = "mg/kg"
measured_value = 2500


====

- Tested on: epidermal DNA synthesis
- assay-method-text: Inhibition of the synthesis of epidermal DNA of the mouse in vivo after oral administration and UV-A irradiation
- condition-parameters: oral 0.25 g/Kg, UV-A 9 J/cm^2 after two hours
property-label: Percent inhibition ± standard error of epidermal DNA synthesis

[[record]]
molecule = "COc1c2occc2cc2ccc(=O)oc12 [8-MOP, 8-methoxypsoralen, reference compound]"
measured_value = "39.1 ± 3.7%"

[[record]]
molecule = "Cc1oc2ccc3c(C)cc(=O)oc3c2c1CO [4'-hydroxymethyl-4,5'-dimethylangelicin, 4,5'-dimethyl-4'-hydroxy-methylangelicin]"
measured_value = "54.2 ± 6.8%"

[[record]]
molecule = "Cc1cc2c(ccc3c(C)cc(=O)oc32)o1"
measured_value = "51.0 ± 8.0%"

[[record]]
molecule = "Cc1cc(=O)oc2c1c(C)cc1occc12"
measured_value = "55.0 ± 6.0%"

[[record]]
molecule = "CC(=O)OCc1c(C)oc2ccc3c(C)cc(=O)oc3c12"
measured_value = "64.8 ± 13.9%"

[[record]]
molecule = "O=c1ccc2ccc3occc3c2o1 [angelicin, reference compound]"
measured_value = "28 ± 2%"

